protocol.details: Microsomal stability assay, rat liver microsomes
condition.context: female, Sprague-Dawley, rat, liver microsomes, pH 7.4, Microsomal stability assays: Clearance
quantity: CLint scaled at 0.08 µM (mL/min/kg)

| compound | measure.unit | value.qualifier | recorded.value |
| --- | --- | --- | --- |
| CC(Cc1ccc(F)cc1)NCCCc1ccccc1 (stereo not shown) | mL/min/kg | > | 400 |
| CC(Cc1ccccc1)NCCCc1ccc(N)cc1 (stereo not shown) | mL/min/kg | = | 65.3 |
| CC(Cc1ccncc1)NCCCc1ccc(O)cc1 (stereo not shown) | mL/min/kg | = | 89.3 |
| CC(Cc1ccc(F)cc1)NCCCc1ccc(I)cc1 (stereo not shown) | mL/min/kg | = | 375 |
| CC(Cc1ccc(N)cc1)NCCCc1ccc(F)cc1 (stereo not shown) | mL/min/kg | < | 10 |
| CC(Cc1ccccc1)NCCCc1ccc([N+](=O)[O-])cc1 (stereo not shown) | mL/min/kg | > | 400 |
| CC(Cc1ccc([N+](=O)[O-])cc1)NCCCc1ccc(Br)cc1 (stereo not shown) | mL/min/kg | > | 400 |
| FCC(Cc1ccc(Br)cc1)NCCCc1ccc(F)cc1 (stereo not shown) | mL/min/kg | = | 335 |
| CCC(Cc1ccccc1)NCCCc1ccc(O)cc1 (stereo not shown) | mL/min/kg | > | 400 |
| CC(Cc1ccncc1)NCCCc1ccc(F)cc1 (stereo not shown) | mL/min/kg | = | 150 |

====

protocol.details: in vitro
condition.context: female, Sprague-Dawley, rat, microsomes, pH 7.4, Microsomal stability assays: Clearance
Reported values of CLint scaled at 0.08 µM for individual entries

| molecule | measure.unit | value.qualifier | CLint scaled at 0.08 µM |
| --- | --- | --- | --- |
| OCC(Cc1ccc(F)cc1)NCCCc1ccc(Br)cc1 (centres unmarked) | mL/min/kg | > | 450 |
| FCC(Cc1ccc(F)cc1)NCCCc1ccnc2ccccc12 (centres unmarked) | mL/min/kg | > | 400 |
| O=[N+]([O-])c1ccc(CCCNC(CF)Cc2ccc(F)cc2)cc1 (centres unmarked) | mL/min/kg | = | 116 |
| OCC(Cc1ccc(F)cc1)NCCCn1cccn1 (centres unmarked) | mL/min/kg | = | 139 |
| FCC(Cc1ccc(F)cc1)NCCCc1ccncc1 (centres unmarked) | mL/min/kg | = | 38.3 |

====

protocol.details: in vitro
condition.context: female, Sprague-Dawley, rat, microsomes, pH 7.4, Microsomal stability assays: Clearance
quantity: CLint scaled at 0.08 µM (mL/min/kg)

| molecule | measure.unit | recorded.value |
| --- | --- | --- |
| Fc1ccc(CCCNC(Cc2ccc(F)cc2)C(F)F)cc1 (stereo not drawn) [Compound 81] | mL/min/kg | 83.2 |
| O=CNc1ccc(CC(CF)NCCCc2ccc(F)cc2)cc1 (stereo not drawn) [Compound 73] | mL/min/kg | 43.7 |
| Nc1ccc(CC(CF)NCCCc2ccc(F)cc2)cc1 (stereo not drawn) [Compound 79] | mL/min/kg | 21.1 |
| FCC(Cc1ccc(-c2cncnc2)cc1)NCCCc1ccc(F)cc1 (stereo not drawn) [Compound 69] | mL/min/kg | 76.8 |
| FCC(Cc1ccc(-c2cccnc2)cc1)NCCCc1ccc(F)cc1 (stereo not drawn) [Compound 83] | mL/min/kg | 113 |
| CC(Cc1ccc(NC=O)cc1)N(C=O)CCCc1ccccc1 (stereo not drawn) [Compound 76] | mL/min/kg | 56 |
